System: A498 renal
Assay: NCI-60 one-dose screen, 48 h (100 = growth as untreated, 0 = no growth, -100 = all killed)
Conditions: 10 µM unless noted
Compounds without any hit were thinned out: in the full panel of roughly 83,000, 20% have a hit.
Reported growth maps to class as: low bracket (below 50%), middle bracket (50% to below 90%), high bracket (90% or more)

Record excerpt, results attached:
Cc1nc2ccccc2c(/C=C/c2ccccc2)c1C(=O)/C=C/c1ccccc1 = middle bracket
Nc1nc(N)c2c(n1)NC(c1cccc(Nc3ccnc4cc(C(F)(F)F)ccc34)c1)CC(c1ccc(Br)cc1)=N2 (centres undefined) = middle bracket
CSc1nc(C)c([N+](=O)[O-])c(N)n1 = high bracket
O=C(Nc1ccc(Br)cc1)C1=NCCCCN1 = high bracket
O=C(Nc1cnc(Nc2ccc(N3CCOCC3)nc2)nc1Oc1ccc(C(F)(F)F)cc1)c1ccncc1 = high bracket

### Prompt Would you mind sorting Cc1ccc(-c2nc(N3CCNCC3)c3oc(-c4ccc(C)cc4)nc3n2)cc1 into the appropriate category?
### Response high bracket

### Prompt Would you mind sorting O=c1c2ccccc2c(=O)c2c1sc1c(=O)c3ccc(O)cc3c(=O)c12 into the appropriate category?
### Response low bracket

### Prompt Would you mind sorting C=C1C(=O)O[C@H]2[C@H]1CC/C(COC(=O)/C=C/C(=O)OC/C1=C/CC[C@@]3(C)O[C@H]3[C@H]3OC(=O)C(=C)[C@@H]3CC1)=C\CC[C@@]1(C)O[C@@H]21 into the appropriate category?
### Response high bracket

### Prompt Would you mind sorting O=C(NC1CC(F)C1)c1cc2cccnc2n1-c1ccc(Cl)c(Cl)c1 (centres undefined) into the appropriate category?
### Response high bracket

### Prompt Would you mind sorting COC(=O)CC[C@@H]1O[C@@H](c2ccc(F)cc2)[C@@H](O)[C@H]1O into the appropriate category?
### Response high bracket

### Prompt Would you mind sorting CC1(C)N=C(N)N=C(N)N1c1ccc(CCCCc2ccccc2)c(Cl)c1 into the appropriate category?
### Response middle bracket

### Prompt Would you mind sorting CCS/C(Nc1ccccc1)=C(\C#N)C(=O)Nc1ccc(OC)cc1 into the appropriate category?
### Response low bracket

### Prompt Would you mind sorting Cc1[nH]c(C2CC(c3ccc(C(F)(F)F)c(F)c3)=NN2c2ccccc2)c(C)c1C(=O)NCC(F)(F)F (centres undefined) into the appropriate category?
### Response low bracket

### Prompt Would you mind sorting O=C(/C=C/c1cccc(Cl)c1Cl)Nc1ncc(Cc2ccccc2Cl)s1 into the appropriate category?
### Response low bracket

### Prompt Would you mind sorting [2H]C([2H])([2H])Oc1ccc(F)cc1/C=C/C(=O)/C=C(O)/C=C/c1cc(F)ccc1OC([2H])([2H])[2H] into the appropriate category?
### Response high bracket

### Prompt Would you mind sorting Cc1ccc(C2CC(c3nc(-c4ccc(Cl)cc4)oc3C)=NN2C(=O)c2ccncc2)cc1 (centres undefined) into the appropriate category?
### Response middle bracket

### Prompt Would you mind sorting c1ccc2c(c1)CCCc1nnc3nc4ccccc4n3c1-2 into the appropriate category?
### Response middle bracket

### Prompt Would you mind sorting COc1cc(C(=O)n2nc(N3CCOCC3)c3cc(-n4cccc4)ccc32)cc(OC)c1OC into the appropriate category?
### Response low bracket

### Prompt Would you mind sorting O=S(=O)(Nc1cc(Sc2cccc3cccnc23)c(O)c2ccccc12)c1ccccc1 into the appropriate category?
### Response middle bracket
